# Tested on: SK-OV-3 ovarian
# test_name: NCI-60 one-dose screen, 48 h (100 = growth as untreated, 0 = no growth, -100 = all killed)
# particulars: 10 µM unless noted
About 83,000 compounds went through this panel and 20% of them were active in at least one assay; those are over-represented in the sample as a whole.
Quick rule: growth of at least 80% means Criterion met, below that means Criterion not met.

* O=C1/C(=C\c2cn(C(=O)c3ccc(Cl)cc3)c3ccccc23)c2ccccc2N1c1c(Cl)cccc1Cl | Criterion met
* COc1ccc(/C=C2\N=C3SC=C(N)N3C2=O)cc1 | Criterion not met
* C[C@]12C[C@@H](c3ccoc3)OC(=O)[C@@H]1CC[C@]1(C)[C@@H]2CC[C@@H](O)[C@]1(C)O | Criterion met
* COc1ccc(C(=O)/C=C/c2cc3ccccc3[nH]c2=O)cc1 | Criterion not met

###

# Tested on: RPMI-8226 leukemia
# test_name: NCI-60 one-dose screen, 48 h
# particulars: 10 µM unless noted
This is part of a sample that, as a whole, favours compounds with a hit. Of some 83,000 tested, about 20% had one in any assay. Active and inactive are the calls of the source. Rule for the calls: active = growth percent below 10; inactive = the rest.
Labels: active, inactive

• COc1cc(NC(N)=NCC(C)(C)COc2ccc(C(F)(F)F)cc2)cnc1C#N = inactive
• O=C1CCc2c(sc3[nH]c(=S)n(Cc4ccccc4)c(=O)c23)C1 = active
• O=C(Nc1ccc(Nc2cc(Nc3ccccc3)ncn2)cc1)Nc1cc(C(F)(F)F)ccc1F = inactive
• COc1cc(C(=O)/C=C/c2c(C)n([O-])c3ccc(C)cc3[n+]2=O)cc(OC)c1OC = active
• COC1C/C(=N\O)C2OC(c3ccccc3)OCC2O1 (stereo not given) = inactive
• Cc1cc(-c2nc3ccccc3s2)ccc1NC(=O)COc1ccc(Cl)cc1 = inactive
• O=C1/C(=C/c2ccc(Cl)c(Cl)c2)CN(C(=O)CCN2CCC(=NO)CC2)C/C1=C\c1ccc(Cl)c(Cl)c1 = active
• Cl/C(=N\Nc1ccccc1)c1ccccc1 = inactive
• CCN(CC)CCCNc1cccc2c(SCc3ccccc3)ccnc12 = active
• CCC(c1ccc(O)cc1)C(CC)c1ccc(O)c(F)c1 (stereo not given) = inactive

###

# Test system: SF-295 CNS
# test_name: NCI-60 one-dose screen, 48 h (100 = growth as untreated, 0 = no growth, -100 = all killed)
# particulars: 10 µM unless noted
The panel holds about 83,000 compounds, 20% with a hit somewhere; the sample as a whole holds those more often.
# growth >= 90% gives t, anything below gives f

* COc1cc(OC)c(/C=C/S(=O)(=O)Cc2ccc(OC)c(N)n2)c(OC)c1 | f
* Cc1cc(Nc2nc(N3CCN(C)CC3)nc3ccccc23)n[nH]1 | f
* COc1cc(C2CC(=O)Nc3c2cnn3Cc2ccco2)cc2c1OCCO2 (stereo not given) | f
* COc1c2ccccc2c(OC)c2[nH]c(=O)ccc12 | f
* COc1cnc2c(c1)C(=O)c1c-2n(CCCN2CCNCC2)c(=O)c2cc([N+](=O)[O-])ccc12 | f
* CSc1ccc(N=C=C(c2ccccc2)c2ccccc2)cc1 | t
* CC[C@H](CO)Nc1nc(NCc2ccccc2)n2ncc(C(C)C)c2n1 | f
* O=C1c2c[n+](Cc3ccccc3)ccc2-c2nc3ccccc3c3ccnc1c23 | f
* Nc1cc(-c2nc3sccn3c2-c2ccnc(NCCCNS(=O)(=O)c3ccc(F)cc3)n2)ccc1F | f
* S=c1[nH]nc(CSc2ncnc3c2c(-c2ccccc2)cn3-c2ccc(Cl)cc2)o1 | t
* C=C1C(=O)O[C@H]2[C@H]1CC/C(Cn1cc(Cn3ccc4ccccc43)nn1)=C\CC[C@@]1(C)O[C@@H]21 | f
* O=C1c2ccccc2-c2nccc3cc(Cl)nc1c23 | f
* CNC(=S)N/N=C/CSC/C=N/NC(=S)NC | t
* COc1ccc(CN2C(=O)/C(=C\c3cc(OC)c(OC)c(OC)c3)c3cc(OC)ccc32)cc1 | f
* Cn1c2ccccc2c2c3c(c4c5ccccc5n(CCCCCC#N)c4c21)C(=O)N(O)C3=O | f
* C(=N\Nc1ccccn1)/c1ccccn1 | f
* COc1cc2c(cc1O)CCc1cc(O)cc(OC)c1-2 | t
* Fc1ccc(Cc2ccc(F)cc2)cc1 | t
* CCCCN(CC)CCCCCCCCCCN1CCCc2cc(OC)ccc21 | f
* CS(CCCCN=C=S)=NC(=O)c1c(F)c(F)c(F)c(F)c1F (stereo not given) | t
* O=C(CN1CCN(c2cc3c(cc2F)c(=O)c(C(=O)N/N=C/c2ccccc2)cn3C2CC2)CC1)N/N=C\c1ccccc1 | f
* CN1CCN(c2ccc3nc(-c4ccc5nc(-c6ccc(OCCC(C)(C)C)cc6)[nH]c5c4)[nH]c3c2)CC1 | f
* Oc1ccccc1/C=N/Nc1ccc2ccccc2n1 | f
* COc1ccc(/C=C2\CN(C(=O)CCN3CCC(=NO)CC3)C/C(=C\c3ccc(OC)cc3)C2=O)cc1 | f
* COc1nc2c(cc1S(=O)(=O)c1ccccc1)CCc1c-2cnn1Cc1ccccc1 | f
* COCCCN=C(N)c1ccc(NC(=O)c2ccc(C(=O)Nc3ccc(C(N)=NCCCOC)cc3)cc2)cc1 | t
* Cc1cccc(NC(=O)c2sc3nc4c(cc3c2N)C(=O)CCC4)c1 | f
* COc1ccc(-c2csc(NC(=O)CN3CCN(c4cc5c(cc4F)c(=O)c(C(=O)O)cn5C4CC4)CC3)n2)cc1 | f
* C[C@@H]1CC[C@@H]2[C@@H]1[C@H](OC(=O)/C=C/c1ccccc1)[C@]1(c3ccccc3)C[C@@H](OC(=O)CO)[C@@]2(C)O1 | t
* Nc1c(C(=O)Nc2ccccc2Cl)sc2nc3c(cc12)CCCCCC3 | f
* CCCCCCCCCCCCNC(=O)[C@H]1CSC(c2ccc(OC)c(F)c2)N1 (stereo not given in full) | f
* O=C(/C=C/c1ccc(Cl)cc1)/C=C/c1cc2ccccc2[nH]c1=O | t
* CC1(C)CC(C(=O)OCCCCCCCCCCC[P+](c2ccccc2)(c2ccccc2)c2ccccc2)C(C)(C)N1O (stereo not given) | f
* CC(C)(C)c1nn(-c2ccccc2)c2c1CC1(CN2Cc2ccc3c(c2)OCO3)C(=O)c2ccccc2C1=O | t
* c1ccc(CSc2ncnc3nc[nH]c23)nc1 | t
* CCCCCCCCCC(=O)Oc1ccc(/C(=C(/C)c2ccccc2)c2ccc(OCCN3CCCC3)cc2)cc1 | f
* CN(C)c1ccc(/C=C(\C#N)c2nc3ccccc3s2)cc1 | t
* CC/C=C\C[C@H](O)C/C=C1/C(=O)C=C[C@@H]1C/C=C\CCCC(=O)OC(C)C | f
